Reference for the values: patent US20090311237A1

- experiment-summary: Pharmacokinetics of ZA in pig serum after IV or SC infusion with or without rHuPH20 (LC-MS-MS, non-compartmental analysis)
- Format: in vivo
- condition-set: female, Yorkshire, pig, serum, intravenous, […], animal ID 67, Study Group 1, IV 20 min infusion, ZA […], rHuPH20 0 U/mL, time 0.333 h; read-out: Zoledronic Acid Serum Concentration
experimental-readout: concentration at 0.333 h (ng/mL)

INSERT INTO measurements (compound_string, experimental_readout, observed_result) VALUES
  ('O=P(O)(O)C(O)(Cn1ccnc1)P(=O)(O)O', 'concentration at 0.333 h', 556);

----------
- experiment-summary: Phase 1 Stage 1 clinical pharmacokinetics of SC ZA co-administered with rHuPH20
- Format: in vivo, human
- condition-set: human, serum, sc, […], Subj 18; ZA […] SC; inf […]; PH20 23304 U; read-out: AUC (0-inf)
experimental-readout: AUC(0-inf) (ng·h/mL)

INSERT INTO assay_data (compound_string, experimental_readout, unit_tag, observed_result) VALUES
  ('O=P(O)(O)C(O)(Cn1ccnc1)P(=O)(O)O', 'AUC(0-inf)', 'ng·h/mL', 68.1);
